- ASSAY EXPLANATION: log P by HPLC on reversed-phase columns (EEC Directive 79/831 Annex V.A8)
- Type: physicochemical
- CONDITION DESCRIPTION: reversed-phase C18 HPLC column, pH 2.7, HPLC reversed-phase C18, acidic range pH 2.7 (HCOOH); only or first value of the cell; read-out: log P
Lab note: cut-off is 4. Strictly less in chromatographic logP is 1. Exactly 4 or more is -1.

### Prompt # strict comparison: is reported chromatographic logP < 4? input = Cc1cc(C#N)cc(C(=O)NCc2ccccc2OC(F)F)c1NC(=O)c1cc(Cn2nnc(C(F)(F)F)n2)nn1-c1ncccc1Cl
### Response 1

### Prompt # strict comparison: is reported chromatographic logP < 4? input = O=C(NCc1ccccc1OC(F)(F)F)c1cc(Br)cc(Cl)c1NC(=O)c1cc(Cn2nnc(C(F)(F)F)n2)nn1-c1ncccc1Cl
### Response -1

### Prompt # strict comparison: is reported chromatographic logP < 4? input = Cc1cc(C#N)cc(C(=O)NCc2ccccc2)c1NC(=O)c1cc(Cn2nnc(CCC(F)(F)F)n2)nn1-c1ncccc1Cl
### Response 1

### Prompt # strict comparison: is reported chromatographic logP < 4? input = Cc1cc(C#N)cc(C(=O)NC2CCN(C)CC2)c1NC(=O)c1cc(Cn2nnc(C(F)(F)F)n2)nn1-c1ccccc1Cl
### Response 1

### Prompt # strict comparison: is reported chromatographic logP < 4? input = Cc1cc(Cl)cc(C(=O)NCc2ccc(C(C)(C)C)cc2)c1NC(=O)c1cc(Cn2nnc(C(F)(F)F)n2)nn1-c1ncccc1Cl
### Response -1

### Prompt # strict comparison: is reported chromatographic logP < 4? input = Cc1cc(C#N)cc(C(=O)NCc2cccc(S(F)(F)(F)(F)F)c2)c1NC(=O)c1cc(Cn2nnnc2C(F)(F)F)nn1-c1ncccc1Cl
### Response 1

### Prompt # strict comparison: is reported chromatographic logP < 4? input = Cc1cc(C#N)cc(C(=O)NCc2cccc(OC(F)F)c2)c1NC(=O)c1cc(Cn2nnc(C(F)(F)F)n2)nn1-c1ncccc1Cl
### Response 1

### Prompt # strict comparison: is reported chromatographic logP < 4? input = Cc1cc(Cl)cc(C(=O)NC(C)c2cccc(Cl)c2Cl)c1NC(=O)c1cc(Cn2nnc(C(F)(F)F)n2)nn1-c1ncccc1Cl (centres unmarked)
### Response -1

### Prompt # strict comparison: is reported chromatographic logP < 4? input = Cc1cc(Cl)cc(C(=O)NCc2cccc(OC(F)F)c2)c1NC(=O)c1cc(Cn2nnc(C(F)F)n2)nn1-c1ncccc1Cl
### Response 1

### Prompt # strict comparison: is reported chromatographic logP < 4? input = Cc1cc(Cl)cc(C(=O)NC(C)c2cc(Cl)ccc2Cl)c1NC(=O)c1cc(Cn2nnc(C(F)(F)F)n2)nn1-c1ncccc1Cl (centres unmarked)
### Response -1

### Prompt # strict comparison: is reported chromatographic logP < 4? input = Cc1ccc(CNC(=O)c2cc(C#N)cc(C)c2NC(=O)c2cc(Cn3nnc(C(F)(F)F)n3)nn2-c2ccccc2Cl)cc1
### Response 1

### Prompt # strict comparison: is reported chromatographic logP < 4? input = Cc1cc(C#N)cc(C(=O)NCc2ccccc2OC(F)F)c1NC(=O)c1cc(Cn2nnc(C(F)(F)F)n2)nn1-c1ccccc1Cl
### Response 1

### Prompt # strict comparison: is reported chromatographic logP < 4? input = Cc1cc(Cl)cc(C(=O)NC2CCN(Cc3ccccc3)C2)c1NC(=O)c1cc(Cn2nnc(C(F)(F)F)n2)nn1-c1ncccc1Cl (centres unmarked)
### Response 1

### Prompt # strict comparison: is reported chromatographic logP < 4? input = Cc1cc(Cl)cc(C(=O)NC(C)c2ccc(C(F)(F)F)cc2)c1NC(=O)c1cc(Cn2nnc(C(F)(F)F)n2)nn1-c1ncccc1Cl (centres unmarked)
### Response -1
